Where do these numbers come from? They come from ChEMBL document CHEMBL1155297.

Tested on: Fusarium solani
method: Antifungal activity against Fusarium solani NCIM 1330 at 100 ug/disk after 48 hrs by agar disk diffusion method
Type: functional
assaySetup: NCIM 1330, 48 h, read-out: IZ
measuredParameter: zone of inhibition at 100 µg/disc
Put your answer as a value accompanied by its unit after it.

Q: Under Fusarium solani, report zone of inhibition at 100 µg/disc for CN1C(=N)C(C(CS(=O)(=O)c2ccc(Cl)cc2)S(=O)(=O)c2ccc(Cl)cc2)C(=N)N(C)C1=O (centres undefined)
Ans: 16 mm

Q: Under Fusarium solani, report zone of inhibition at 100 µg/disc for NC1=NC(=O)N=C(N)C1C(CS(=O)(=O)c1ccc(Cl)cc1)S(=O)(=O)c1ccc(Cl)cc1 (centres undefined)
Ans: 17 mm

Q: Under Fusarium solani, report zone of inhibition at 100 µg/disc for CN1C(=N)C(C(CC(=O)c2ccc(Cl)cc2)C(=O)c2ccc(Cl)cc2)C(=N)N(C)C1=O (centres undefined)
Ans: 14 mm

Q: Under Fusarium solani, report zone of inhibition at 100 µg/disc for Cc1ccc(C(=O)CC(C(=O)c2ccc(C)cc2)C2C(N)=NN=C2N)cc1 (centres undefined)
Ans: 32 mm

Q: Under Fusarium solani, report zone of inhibition at 100 µg/disc for NC1=NC(=S)N=C(N)C1C(CC(=O)c1ccc(Cl)cc1)C(=O)c1ccc(Cl)cc1 (centres undefined)
Ans: 19 mm

Q: Under Fusarium solani, report zone of inhibition at 100 µg/disc for Cc1ccc(C(=O)CC(C(=O)c2ccc(C)cc2)C2C(N)=NC(=O)N=C2N)cc1 (centres undefined)
Ans: 14 mm

Q: Under Fusarium solani, report zone of inhibition at 100 µg/disc for Cc1ccc(S(=O)(=O)CC(C2C(N)=NC(=S)N=C2N)S(=O)(=O)c2ccc(C)cc2)cc1 (centres undefined)
Ans: 19 mm

Q: Under Fusarium solani, report zone of inhibition at 100 µg/disc for N=C1ON=C(N)C1C(CC(=O)c1ccccc1)C(=O)c1ccccc1 (centres undefined)
Ans: 30 mm

Q: Under Fusarium solani, report zone of inhibition at 100 µg/disc for NC1=NN=C(N)C1C(CS(=O)(=O)c1ccc(Cl)cc1)S(=O)(=O)c1ccc(Cl)cc1 (centres undefined)
Ans: 35 mm

Q: Under Fusarium solani, report zone of inhibition at 100 µg/disc for CN1C(=N)C(C(CC(=O)c2ccccc2)C(=O)c2ccccc2)C(=N)N(C)C1=O (centres undefined)
Ans: 11 mm

Q: Under Fusarium solani, report zone of inhibition at 100 µg/disc for N=C1ON=C(N)C1C(CC(=O)c1ccc(Cl)cc1)C(=O)c1ccc(Cl)cc1 (centres undefined)
Ans: 33 mm

Q: Under Fusarium solani, report zone of inhibition at 100 µg/disc for Cc1ccc(S(=O)(=O)CC(C2C(N)=NC(=O)N=C2N)S(=O)(=O)c2ccc(C)cc2)cc1 (centres undefined)
Ans: 13 mm

Q: Under Fusarium solani, report zone of inhibition at 100 µg/disc for Cc1ccc(S(=O)(=O)CC(C2C(=N)ON=C2N)S(=O)(=O)c2ccc(C)cc2)cc1 (centres undefined)
Ans: 28 mm

Q: Under Fusarium solani, report zone of inhibition at 100 µg/disc for NC1=NN=C(N)C1C(CC(=O)c1ccc(Cl)cc1)C(=O)c1ccc(Cl)cc1 (centres undefined)
Ans: 33 mm

Q: Under Fusarium solani, report zone of inhibition at 100 µg/disc for N=C1ON=C(N)C1C(CS(=O)(=O)c1ccccc1)S(=O)(=O)c1ccccc1 (centres undefined)
Ans: 31 mm

Q: Under Fusarium solani, report zone of inhibition at 100 µg/disc for NC1=NC(=S)N=C(N)C1C(CC(=O)c1ccccc1)C(=O)c1ccccc1 (centres undefined)
Ans: 16 mm

Q: Under Fusarium solani, report zone of inhibition at 100 µg/disc for CN1C(=N)C(C(CS(=O)(=O)c2ccccc2)S(=O)(=O)c2ccccc2)C(=N)N(C)C1=O (centres undefined)
Ans: 13 mm

Q: Under Fusarium solani, report zone of inhibition at 100 µg/disc for NC1=NN=C(N)C1C(CC(=O)c1ccccc1)C(=O)c1ccccc1 (centres undefined)
Ans: 31 mm

Q: Under Fusarium solani, report zone of inhibition at 100 µg/disc for NC1=NC(=O)N=C(N)C1C(CS(=O)(=O)c1ccccc1)S(=O)(=O)c1ccccc1 (centres undefined)
Ans: 14 mm

---

System: Bacillus subtilis
method: Antibacterial activity against Bacillus subtilis NCIM 2063 at 200 ug/disk after 24 hrs by agar disk diffusion method
Assay type: functional
assaySetup: NCIM 2063, 24 h, read-out: IZ
Would you kindly list zone of inhibition at 200 µg/disc for each of these molecules?
All answers are understood in mm, so give the number only.

Q: For the molecule NC1=NC(=S)N=C(N)C1C(CC(=O)c1ccc(Cl)cc1)C(=O)c1ccc(Cl)cc1 (stereo not drawn) , give its measured zone of inhibition at 200 µg/disc value.
Ans: 25

Q: For the molecule Cc1ccc(C(=O)CC(C(=O)c2ccc(C)cc2)C2C(=N)N(C)C(=O)N(C)C2=N)cc1 (stereo not drawn) , give its measured zone of inhibition at 200 µg/disc value.
Ans: 10

Q: For the molecule NC1=NN=C(N)C1C(CC(=O)c1ccc(Cl)cc1)C(=O)c1ccc(Cl)cc1 (stereo not drawn) , give its measured zone of inhibition at 200 µg/disc value.
Ans: 32

---

Tested on: Fusarium solani
method: Antifungal activity against Fusarium solani NCIM 1330 at 100 ug/disk after 48 hrs by agar disk diffusion method
Format: functional
assaySetup: NCIM 1330, 48 h, read-out: IZ
measuredParameter: zone of inhibition at 100 µg/disc
Put your answer as a value accompanied by its unit after it.

Q: For the molecule N=C1ON=C(N)C1C(CS(=O)(=O)c1ccc(Cl)cc1)S(=O)(=O)c1ccc(Cl)cc1 (configuration not stated) , give its measured zone of inhibition at 100 µg/disc value.
Ans: 33 mm

Q: For the molecule NC1=NC(=O)N=C(N)C1C(CC(=O)c1ccccc1)C(=O)c1ccccc1 (configuration not stated) , give its measured zone of inhibition at 100 µg/disc value.
Ans: 13 mm

Q: For the molecule NC1=NN=C(N)C1C(CS(=O)(=O)c1ccccc1)S(=O)(=O)c1ccccc1 (configuration not stated) , give its measured zone of inhibition at 100 µg/disc value.
Ans: 34 mm

Q: For the molecule NC1=NC(=O)N=C(N)C1C(CC(=O)c1ccc(Cl)cc1)C(=O)c1ccc(Cl)cc1 (configuration not stated) , give its measured zone of inhibition at 100 µg/disc value.
Ans: 17 mm

Q: For the molecule NC1=NC(=S)N=C(N)C1C(CS(=O)(=O)c1ccc(Cl)cc1)S(=O)(=O)c1ccc(Cl)cc1 (configuration not stated) , give its measured zone of inhibition at 100 µg/disc value.
Ans: 22 mm

Q: For the molecule NC1=NC(=S)N=C(N)C1C(CS(=O)(=O)c1ccccc1)S(=O)(=O)c1ccccc1 (configuration not stated) , give its measured zone of inhibition at 100 µg/disc value.
Ans: 18 mm

Q: For the molecule Cc1ccc(S(=O)(=O)CC(C2C(N)=NN=C2N)S(=O)(=O)c2ccc(C)cc2)cc1 (configuration not stated) , give its measured zone of inhibition at 100 µg/disc value.
Ans: 30 mm

Q: For the molecule Cc1ccc(C(=O)CC(C(=O)c2ccc(C)cc2)C2C(=N)ON=C2N)cc1 (configuration not stated) , give its measured zone of inhibition at 100 µg/disc value.
Ans: 32 mm

Q: For the molecule CC(=O)N1CCN(c2ccc(OCC3COC(Cn4ccnc4)(c4ccc(Cl)cc4Cl)O3)cc2)CC1 (configuration not stated) , give its measured zone of inhibition at 100 µg/disc value.
Ans: 38 mm

Q: For the molecule Cc1ccc(S(=O)(=O)CC(C2C(=N)N(C)C(=O)N(C)C2=N)S(=O)(=O)c2ccc(C)cc2)cc1 (configuration not stated) , give its measured zone of inhibition at 100 µg/disc value.
Ans: 11 mm

Q: For the molecule Cc1ccc(C(=O)CC(C(=O)c2ccc(C)cc2)C2C(N)=NC(=S)N=C2N)cc1 (configuration not stated) , give its measured zone of inhibition at 100 µg/disc value.
Ans: 15 mm

Q: For the molecule Cc1ccc(C(=O)CC(C(=O)c2ccc(C)cc2)C2C(=N)N(C)C(=O)N(C)C2=N)cc1 (configuration not stated) , give its measured zone of inhibition at 100 µg/disc value.
Ans: 12 mm

---

Would you kindly list zone of inhibition at 200 µg/disc for each of these compounds?
System: Proteus vulgaris
method: Antibacterial activity against Proteus vulgaris NCIM 2027 at 200 ug/disk after 24 hrs by agar disk diffusion method
Format: functional
assaySetup: NCIM 2027, 24 h, read-out: IZ

Q: For the compound CN1C(=N)C(C(CS(=O)(=O)c2ccccc2)S(=O)(=O)c2ccccc2)C(=N)N(C)C1=O (stereo not given) , give its measured zone of inhibition at 200 µg/disc value.
Ans: 12 mm

Q: For the compound NC1=NC(=O)N=C(N)C1C(CC(=O)c1ccccc1)C(=O)c1ccccc1 (stereo not given) , give its measured zone of inhibition at 200 µg/disc value.
Ans: 14 mm

Q: For the compound NC1=NC(=O)N=C(N)C1C(CS(=O)(=O)c1ccc(Cl)cc1)S(=O)(=O)c1ccc(Cl)cc1 (stereo not given) , give its measured zone of inhibition at 200 µg/disc value.
Ans: 19 mm

Q: For the compound O=C(N[C@H](CO)[C@H](O)c1ccc([N+](=O)[O-])cc1)C(Cl)Cl [CHLORAMPHENICOL] , give its measured zone of inhibition at 200 µg/disc value.
Ans: 45 mm

Q: For the compound CN1C(=N)C(C(CC(=O)c2ccccc2)C(=O)c2ccccc2)C(=N)N(C)C1=O (stereo not given) , give its measured zone of inhibition at 200 µg/disc value.
Ans: 8 mm
